- measuredOn: UniProtKB P22303
- Sequence (P22303 whole entry): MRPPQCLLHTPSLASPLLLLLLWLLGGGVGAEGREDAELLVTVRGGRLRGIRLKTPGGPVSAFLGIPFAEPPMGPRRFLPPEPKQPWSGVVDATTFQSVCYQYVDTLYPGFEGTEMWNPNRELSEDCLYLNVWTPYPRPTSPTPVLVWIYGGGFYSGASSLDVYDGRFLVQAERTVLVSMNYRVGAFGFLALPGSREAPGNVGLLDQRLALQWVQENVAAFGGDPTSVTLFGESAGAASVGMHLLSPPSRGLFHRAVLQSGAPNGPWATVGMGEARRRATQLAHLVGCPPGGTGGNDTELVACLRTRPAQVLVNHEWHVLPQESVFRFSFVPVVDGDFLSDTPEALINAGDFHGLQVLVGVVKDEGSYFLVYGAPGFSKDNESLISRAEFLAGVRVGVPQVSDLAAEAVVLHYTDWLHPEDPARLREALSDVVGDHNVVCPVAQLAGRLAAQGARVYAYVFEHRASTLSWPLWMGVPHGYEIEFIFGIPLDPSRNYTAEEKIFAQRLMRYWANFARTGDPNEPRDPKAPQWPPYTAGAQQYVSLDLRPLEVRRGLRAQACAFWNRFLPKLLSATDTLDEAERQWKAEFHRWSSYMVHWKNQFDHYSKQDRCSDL
pIC50: −log10 of the molar value.
Assign y to entries whose pIC50 meets or exceeds 6; assign n to the rest.

compoundSmiles | classification
Fc1ccc(/C=N/C2CCN(Cc3ccccc3)CC2)cc1 | n
FC(F)(F)c1ccc(/C=N/C2CCN(Cc3ccccc3)CC2)cc1 | y
Oc1ccc(/C=N/C2CCN(Cc3ccccc3)CC2)cc1 | n

Check this compound for pIC50 at or above 6: COc1cc(CNC2CCN(Cc3ccccc3)CC2)cc(OC)c1OC
n

* * *

- methodSummary: MRT in Wistar rat at 10 mg/kg, po measured up to 0 to 72 hrs
- Assay type: ADME, organism-based
- testContext: in vivo
measuredEndpoint: MRT (h)
Lab book: enter the figure in h, no units written.

Output MRT of FC(F)(F)c1ccc(CNC2CCN(Cc3ccccc3)CC2)cc1
45.7

* * *

- methodSummary: AUC (0 to 24 hrs) in Wistar rat at 10 mg/kg, po
- Format: ADME, organism-based
- Parameters: dose 10 mg/kg, time < 24 hr, route oral
- testContext: in vivo
measuredEndpoint: AUC(0-t) at 24 h (ng·h/mL)
Lab book: enter the figure in ng·h/mL, no units written.

Output AUC(0-t) at 24 h of FC(F)(F)c1ccc(CNC2CCN(Cc3ccccc3)CC2)cc1
633

* * *

- measuredOn: Cholinesterase (Homo sapiens, UniProt P06276)
- Sequence (P06276 whole entry): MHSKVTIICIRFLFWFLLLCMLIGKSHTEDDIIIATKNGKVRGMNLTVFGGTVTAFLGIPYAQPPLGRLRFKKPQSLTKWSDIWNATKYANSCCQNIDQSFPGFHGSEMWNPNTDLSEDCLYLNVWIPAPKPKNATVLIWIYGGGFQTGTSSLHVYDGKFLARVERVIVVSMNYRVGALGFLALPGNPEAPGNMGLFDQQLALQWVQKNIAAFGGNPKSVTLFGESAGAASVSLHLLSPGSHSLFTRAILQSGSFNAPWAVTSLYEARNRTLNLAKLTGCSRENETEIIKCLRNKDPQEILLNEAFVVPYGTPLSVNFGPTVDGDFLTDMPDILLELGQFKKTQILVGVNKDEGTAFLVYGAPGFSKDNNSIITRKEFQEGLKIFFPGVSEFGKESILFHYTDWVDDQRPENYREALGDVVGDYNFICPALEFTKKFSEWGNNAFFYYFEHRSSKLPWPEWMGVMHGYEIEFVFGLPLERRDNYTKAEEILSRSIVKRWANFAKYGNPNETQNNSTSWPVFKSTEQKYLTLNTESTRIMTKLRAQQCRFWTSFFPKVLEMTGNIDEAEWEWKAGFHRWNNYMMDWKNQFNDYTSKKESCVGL
- methodSummary: Inhibition of human serum butyrylcholinesterase using BTCI as substrate pre-incubated for 10 mins followed by substrate addition and measured for 6 mins by Ellman's method
measuredEndpoint: pIC50
Worth noting: pIC50 values are minus log10 of concentrations stated in mol/L.

compoundSmiles | measuredEndpoint | experimentalResult
Oc1ccccc1CNC1CCN(Cc2ccccc2)CC1 | pIC50 | 4.85

Output pIC50 of Clc1ccc(/C=N/C2CCN(Cc3ccccc3)CC2)c(Cl)c1
5.24

Output pIC50 of Clc1ccc(/C=N/C2CCN(Cc3ccccc3)CC2)cc1
5.34

Output pIC50 of COc1cc(CNC2CCN(Cc3ccccc3)CC2)cc(OC)c1OC
4.96

* * *

- measuredOn: Cholinesterase (Homo sapiens)
- methodSummary: Inhibition of human serum butyrylcholinesterase using BTCI as substrate pre-incubated for 10 mins followed by substrate addition and measured for 6 mins by Ellman's method
# IC50 per record follows

Consider the following illustrative entries.
compoundSmiles | IC50
Cc1ccc(/C=N/C2CCN(Cc3ccccc3)CC2)cc1 | > 30 µM
C(=N\C1CCN(Cc2ccccc2)CC1)/c1ccccc1 | > 30 µM
Fc1ccc(/C=N/C2CCN(Cc3ccccc3)CC2)c(F)c1 | > 30 µM

Turning to the following compound.
Output IC50 of FC(F)(F)c1ccc(CNC2CCN(Cc3ccccc3)CC2)cc1
3 µM

* * *

# IC50 per record follows
- measuredOn: UniProtKB P06276
- methodSummary: Inhibition of human serum butyrylcholinesterase using BTCI as substrate pre-incubated for 10 mins followed by substrate addition and measured for 6 mins by Ellman's method
Lab book: enter the figure in µM, no units written.

compoundSmiles | IC50, µM
Clc1ccc(CNC2CCN(Cc3ccccc3)CC2)cc1 | 4

Turning to the following compound.
Provide UniProtKB P06276 IC50 reading for Fc1ccc(CNC2CCN(Cc3ccccc3)CC2)cc1 .
3.9

Value source: ChEMBL document CHEMBL4433202
